// data source = PubChem BioAssay AID1963969

In this section we review reported viability, T/C values for a set of compounds.
system: 817829-284-R-J1-PDC multi-cell spheroid viability; experiment: Anticancer human tumor 817829-284-R-J1-PDC patient-derived colon adenocarcinoma cell line growth inhibition [PI3K]; conditions: second compound 0.316 µM; first compound 10 µM; hits give low values

COMPOUND: CNC(=O)c1ccc(N2C(=S)N(c3ccc(C#N)c(C(F)(F)F)c3)C(=O)C2(C)C)cc1F + CC(Nc1ccc2c(c1)OCCn1cc(N3C(=O)OCC3C(F)F)nc1-2)C(N)=O
viability, T/C, %: 32.8

COMPOUND: CC(C)NCC(C(=O)N1CCN(c2ncnc3c2C(C)CC3O)CC1)c1ccc(Cl)cc1 (stereo not drawn) + COc1c(OCCCN2CCOCC2)ccc2c3n(c(=NC(=O)c4cnc(N)nc4)nc12)CCN3
viability, T/C, %: 7.04

COMPOUND: CCCS(=O)(=O)Nc1ccc(F)c(C(=O)c2c[nH]c3ncc(-c4ccc(Cl)cc4)cc23)c1F + CC(Nc1ccc2c(c1)OCCn1cc(N3C(=O)OCC3C(F)F)nc1-2)C(N)=O
viability, T/C, %: 6.23

----------
tested on: 817829-284-R-J1-PDC multi-cell spheroid viability; assay: Anticancer human tumor 817829-284-R-J1-PDC cell line growth inhibition [PI3K]; details: second compound 0.1 µM; first compound 0.316 µM; hits give low values;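 further: spheroids exposed to agents for seven days before readout; percent of vehicle DMSO control viability which is 100%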
In this section we review reported viability, T/C values for a set of compounds.

COMPOUND: CC1(C)CCC(CN2CCN(c3ccc(C(=O)NS(=O)(=O)c4ccc(NCC5CCOCC5)c([N+](=O)[O-])c4)c(Oc4cnc5[nH]ccc5c4)c3)CC2)=C(c2ccc(Cl)cc2)C1 + Cc1nc(NC(=O)N2CCCC2C(N)=O)sc1-c1ccnc(C(C)(C)C(F)(F)F)c1
UNITS: %
viability, T/C: 98.3
--
COMPOUND: CCCS(=O)(=O)Nc1ccc(F)c(C(=O)c2c[nH]c3ncc(-c4ccc(Cl)cc4)cc23)c1F + COc1c(OCCCN2CCOCC2)ccc2c3n(c(=NC(=O)c4cnc(N)nc4)nc12)CCN3
UNITS: %
viability, T/C: 71.2
--
COMPOUND: CC(C)NCC(C(=O)N1CCN(c2ncnc3c2C(C)CC3O)CC1)c1ccc(Cl)cc1 (stereo not given) + COc1c(OCCCN2CCOCC2)ccc2c3n(c(=NC(=O)c4cnc(N)nc4)nc12)CCN3
UNITS: %
viability, T/C: 26.5
--
COMPOUND: CC1(C)CCC(CN2CCN(c3ccc(C(=O)NS(=O)(=O)c4ccc(NCC5CCOCC5)c([N+](=O)[O-])c4)c(Oc4cnc5[nH]ccc5c4)c3)CC2)=C(c2ccc(Cl)cc2)C1 + COc1c(OCCCN2CCOCC2)ccc2c3n(c(=NC(=O)c4cnc(N)nc4)nc12)CCN3
UNITS: %
viability, T/C: 49.6
--
COMPOUND: CC(C)NCC(C(=O)N1CCN(c2ncnc3c2C(C)CC3O)CC1)c1ccc(Cl)cc1 (stereo not given) + Cc1nc(NC(=O)N2CCCC2C(N)=O)sc1-c1ccnc(C(C)(C)C(F)(F)F)c1
UNITS: %
viability, T/C: 32.4

----------
system: 817829-284-R-J1-PDC multi-cell spheroid viability; assay: Anticancer human tumor 817829-284-R-J1-PDC cell line growth inhibition [PI3K]; conditions: second compound 1 µM; first compound 0.0316 µM; hits give low values;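 further: spheroids exposed to agents for seven days before readout; percent of vehicle DMSO control viability which is 100%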
In this section we review reported viability, T/C values for a set of molecules.
ASSAY_ENDPOINT: viability, T/C

MOLECULE: C[C@@H](NC(=O)c1ncnc(N)c1Cl)c1ncc(C(=O)Nc2cc(C(F)(F)F)c(Cl)cn2)s1 + Cc1nc(NC(=O)N2CCCC2C(N)=O)sc1-c1ccnc(C(C)(C)C(F)(F)F)c1
RESULT: 56%

MOLECULE: C=CC(=O)N1CCN(c2nc(=O)n(-c3c(C)ccnc3C(C)C)c3nc(-c4c(O)cccc4F)c(F)cc23)C(C)C1 (stereo not given) + Cc1nc(NC(=O)N2CCCC2C(N)=O)sc1-c1ccnc(C(C)(C)C(F)(F)F)c1
RESULT: 81.5%

MOLECULE: CC(C)n1nc(-c2ccc3oc(N)nc3c2)c2c(N)ncnc21 + CC(Nc1ccc2c(c1)OCCn1cc(N3C(=O)OCC3C(F)F)nc1-2)C(N)=O
RESULT: 79.8%

MOLECULE: CC1(C)CCC(CN2CCN(c3ccc(C(=O)NS(=O)(=O)c4ccc(NCC5CCOCC5)c([N+](=O)[O-])c4)c(Oc4cnc5[nH]ccc5c4)c3)CC2)=C(c2ccc(Cl)cc2)C1 + COc1c(OCCCN2CCOCC2)ccc2c3n(c(=NC(=O)c4cnc(N)nc4)nc12)CCN3
RESULT: 12.9%

MOLECULE: CC(Cn1ccc(-c2ccc(C#N)c(Cl)c2)n1)NC(=O)c1cc(C(C)O)[nH]n1 (stereo not given) + CC(Nc1ccc2c(c1)OCCn1cc(N3C(=O)OCC3C(F)F)nc1-2)C(N)=O
RESULT: 75.5%

MOLECULE: C[C@@H](NC(=O)c1ncnc(N)c1Cl)c1ncc(C(=O)Nc2cc(C(F)(F)F)c(Cl)cn2)s1 + COc1c(OCCCN2CCOCC2)ccc2c3n(c(=NC(=O)c4cnc(N)nc4)nc12)CCN3
RESULT: 11.8%

MOLECULE: CC(C)n1nc(-c2ccc3oc(N)nc3c2)c2c(N)ncnc21 + COc1c(OCCCN2CCOCC2)ccc2c3n(c(=NC(=O)c4cnc(N)nc4)nc12)CCN3
RESULT: 8.57%

MOLECULE: C#Cc1c(F)ccc2cc(O)cc(-c3ncc4c(N5CC6CCC(C5)N6)nc(OCC56CCCN5CC(F)C6)nc4c3F)c12 (stereo not given) + CC(Nc1ccc2c(c1)OCCn1cc(N3C(=O)OCC3C(F)F)nc1-2)C(N)=O
RESULT: 45.1%

MOLECULE: CC1(C)CCC(CN2CCN(c3ccc(C(=O)NS(=O)(=O)c4ccc(NCC5CCOCC5)c([N+](=O)[O-])c4)c(Oc4cnc5[nH]ccc5c4)c3)CC2)=C(c2ccc(Cl)cc2)C1 + Cc1nc(NC(=O)N2CCCC2C(N)=O)sc1-c1ccnc(C(C)(C)C(F)(F)F)c1
RESULT: 65.9%

MOLECULE: C=CC(=O)N1CCN(c2nc(=O)n(-c3c(C)ccnc3C(C)C)c3nc(-c4c(O)cccc4F)c(F)cc23)C(C)C1 (stereo not given) + CC(Nc1ccc2c(c1)OCCn1cc(N3C(=O)OCC3C(F)F)nc1-2)C(N)=O
RESULT: 61.6%

----------
tested on: 817829-284-R-J1-PDC multi-cell spheroid viability; assay: Anticancer human tumor 817829-284-R-J1-PDC cell line growth inhibition [PI3K]; conditions: second compound 10 µM; first compound 0.01 µM; hits give low values;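 further: spheroids exposed to agents for seven days before readout; percent of vehicle DMSO control viability which is 100%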

COMPOUND: CC(=O)c1c(C)c2cnc(Nc3ccc(N4CCNCC4)cn3)nc2n(C2CCCC2)c1=O + Cc1nc(NC(=O)N2CCCC2C(N)=O)sc1-c1ccnc(C(C)(C)C(F)(F)F)c1
viability, T/C (%): 47.5
//
COMPOUND: Cn1ncnc1[C@H]1c2n[nH]c(=O)c3cc(F)cc(c23)N[C@@H]1c1ccc(F)cc1 + Cc1nc(NC(=O)N2CCCC2C(N)=O)sc1-c1ccnc(C(C)(C)C(F)(F)F)c1
viability, T/C (%): 40.6
//
COMPOUND: CC(=O)c1c(C)c2cnc(Nc3ccc(N4CCNCC4)cn3)nc2n(C2CCCC2)c1=O + CC(Nc1ncnc2nc[nH]c12)c1cc2cccc(Cl)c2c(=O)n1-c1ccccc1
viability, T/C (%): 66.3
//
COMPOUND: CC(C)n1nc(-c2ccc3oc(N)nc3c2)c2c(N)ncnc21 + CC(Nc1ncnc2nc[nH]c12)c1cc2cccc(Cl)c2c(=O)n1-c1ccccc1
viability, T/C (%): 52.1
//
COMPOUND: CCN1CCN(Cc2ccc(Nc3ncc(F)c(-c4cc(F)c5nc(C)n(C(C)C)c5c4)n3)nc2)CC1 + Cc1nc(NC(=O)N2CCCC2C(N)=O)sc1-c1ccnc(C(C)(C)C(F)(F)F)c1
viability, T/C (%): 35.1

----------
In this section we review reported viability, T/C values for a set of molecules.
tested on: 817829-284-R-J1-PDC multi-cell spheroid viability; test: Anticancer human tumor 817829-284-R-J1-PDC cell line growth inhibition [PI3K]; conditions: second compound 0.1 µM; first compound 0.0316 µM; hits give low values;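 further: spheroids exposed to agents for seven days before readout; percent of vehicle DMSO control viability which is 100%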

MOLECULE: CNC(=O)c1ccc(N2C(=S)N(c3ccc(C#N)c(C(F)(F)F)c3)C(=O)C2(C)C)cc1F + Cc1nc(NC(=O)N2CCCC2C(N)=O)sc1-c1ccnc(C(C)(C)C(F)(F)F)c1
viability, T/C / %: 69

MOLECULE: C[C@@H](NC(=O)c1ncnc(N)c1Cl)c1ncc(C(=O)Nc2cc(C(F)(F)F)c(Cl)cn2)s1 + Cc1nc(NC(=O)N2CCCC2C(N)=O)sc1-c1ccnc(C(C)(C)C(F)(F)F)c1
viability, T/C / %: 77.5

MOLECULE: Cn1nccc1Nc1nccc(-c2ccn(C(CO)c3ccc(Cl)c(F)c3)c(=O)c2)n1 (configuration not stated) + CC(Nc1ccc2c(c1)OCCn1cc(N3C(=O)OCC3C(F)F)nc1-2)C(N)=O
viability, T/C / %: 58.9

MOLECULE: CNC(=O)c1ccc(N2C(=S)N(c3ccc(C#N)c(C(F)(F)F)c3)C(=O)C2(C)C)cc1F + CC(Nc1ccc2c(c1)OCCn1cc(N3C(=O)OCC3C(F)F)nc1-2)C(N)=O
viability, T/C / %: 56.5

MOLECULE: CC(Cn1ccc(-c2ccc(C#N)c(Cl)c2)n1)NC(=O)c1cc(C(C)O)[nH]n1 (configuration not stated) + CC(Nc1ccc2c(c1)OCCn1cc(N3C(=O)OCC3C(F)F)nc1-2)C(N)=O
viability, T/C / %: 81.5

MOLECULE: CC(C)n1nc(-c2ccc3oc(N)nc3c2)c2c(N)ncnc21 + COc1c(OCCCN2CCOCC2)ccc2c3n(c(=NC(=O)c4cnc(N)nc4)nc12)CCN3
viability, T/C / %: 26.9

MOLECULE: CC(Cn1ccc(-c2ccc(C#N)c(Cl)c2)n1)NC(=O)c1cc(C(C)O)[nH]n1 (configuration not stated) + CC(Nc1ncnc2nc[nH]c12)c1cc2cccc(Cl)c2c(=O)n1-c1ccccc1
viability, T/C / %: 106

MOLECULE: CC1(C)CCC(CN2CCN(c3ccc(C(=O)NS(=O)(=O)c4ccc(NCC5CCOCC5)c([N+](=O)[O-])c4)c(Oc4cnc5[nH]ccc5c4)c3)CC2)=C(c2ccc(Cl)cc2)C1 + COc1c(OCCCN2CCOCC2)ccc2c3n(c(=NC(=O)c4cnc(N)nc4)nc12)CCN3
viability, T/C / %: 31.8

MOLECULE: CC1(C)CCC(Nc2ncc(C(F)(F)F)c(-c3c[nH]c4c(P(C)(C)=O)c(C#N)ccc34)n2)CN1 (configuration not stated) + Cc1nc(NC(=O)N2CCCC2C(N)=O)sc1-c1ccnc(C(C)(C)C(F)(F)F)c1
viability, T/C / %: 27.2

MOLECULE: CCN1CCN(Cc2ccc(Nc3ncc(F)c(-c4cc(F)c5nc(C)n(C(C)C)c5c4)n3)nc2)CC1 + COc1c(OCCCN2CCOCC2)ccc2c3n(c(=NC(=O)c4cnc(N)nc4)nc12)CCN3
viability, T/C / %: 27.9

MOLECULE: Cn1nccc1Nc1nccc(-c2ccn(C(CO)c3ccc(Cl)c(F)c3)c(=O)c2)n1 (configuration not stated) + Cc1nc(NC(=O)N2CCCC2C(N)=O)sc1-c1ccnc(C(C)(C)C(F)(F)F)c1
viability, T/C / %: 79.8

MOLECULE: CC(=O)c1c(C)c2cnc(Nc3ccc(N4CCNCC4)cn3)nc2n(C2CCCC2)c1=O + CC(Nc1ccc2c(c1)OCCn1cc(N3C(=O)OCC3C(F)F)nc1-2)C(N)=O
viability, T/C / %: 46.8

MOLECULE: C=CC(=O)N1CCN(c2nc(=O)n(-c3c(C)ccnc3C(C)C)c3nc(-c4c(O)cccc4F)c(F)cc23)C(C)C1 (configuration not stated) + Cc1nc(NC(=O)N2CCCC2C(N)=O)sc1-c1ccnc(C(C)(C)C(F)(F)F)c1
viability, T/C / %: 68.7

MOLECULE: CC(Cn1ccc(-c2ccc(C#N)c(Cl)c2)n1)NC(=O)c1cc(C(C)O)[nH]n1 (configuration not stated) + COc1c(OCCCN2CCOCC2)ccc2c3n(c(=NC(=O)c4cnc(N)nc4)nc12)CCN3
viability, T/C / %: 48.2

MOLECULE: CC1(C)CCC(CN2CCN(c3ccc(C(=O)NS(=O)(=O)c4ccc(NCC5CCOCC5)c([N+](=O)[O-])c4)c(Oc4cnc5[nH]ccc5c4)c3)CC2)=C(c2ccc(Cl)cc2)C1 + Cc1nc(NC(=O)N2CCCC2C(N)=O)sc1-c1ccnc(C(C)(C)C(F)(F)F)c1
viability, T/C / %: 97.7

MOLECULE: Cn1ncc(Cl)c1-c1cc(C(=O)NC(CN)Cc2cccc(F)c2)sc1Cl (configuration not stated) + COc1c(OCCCN2CCOCC2)ccc2c3n(c(=NC(=O)c4cnc(N)nc4)nc12)CCN3
viability, T/C / %: 25.4

MOLECULE: CC(C)n1nc(-c2ccc3oc(N)nc3c2)c2c(N)ncnc21 + CC(Nc1ncnc2nc[nH]c12)c1cc2cccc(Cl)c2c(=O)n1-c1ccccc1
viability, T/C / %: 56.7
